# IC50 per entry
# Tested on: PC-9 EGFR-Del19
# EXPERIMENT_DESCRIPTION: Cell proliferation inhibition experiment (CCK-8), PC-9
# Assay type: cell-based
# TEST_SETTINGS: Homo sapiens, 72 h

Some entries whose results are on file:
MOLECULE: CN1CCN(c2ccc(Nc3nc(N[C@H]4CC[C@@H](CO)CC4)c4c(C(=O)c5ccc(F)cc5)c[nH]c4n3)cc2)CC1 [Example 60]
METRIC: IC50
RECORDED_VALUE: < 0.1 µM
//
MOLECULE: Cn1cc(Nc2nc(N[C@H]3CC[C@@H](CO)CC3)c3c(C(=O)c4ccc(F)cc4)c[nH]c3n2)cn1 [Example 114]
METRIC: IC50
RECORDED_VALUE: < 0.1 µM

Notebook: pull reported IC50 for PC-9 EGFR-Del19, entry O=C(c1ccc(F)cc1)c1c[nH]c2nc(Nc3ccc(N4CCOCC4)cc3)nc(N[C@H]3CC[C@H](CO)CC3)c12 [Example 79]
0.1 to 1 µM

Notebook: pull reported IC50 for PC-9 EGFR-Del19, entry CN1CCN(c2ccc(Nc3nc(N[C@H]4CC[C@H](CO)CC4)c4c(C(=O)c5ccc(F)cc5)c[nH]c4n3)cc2F)CC1 [Example 78]
< 0.1 µM

Notebook: pull reported IC50 for PC-9 EGFR-Del19, entry CN1CCN(c2ccc(Nc3nc(N[C@@H]4C=C[C@H](CO)C4)c4c(C(=O)c5ccc(F)cc5)c[nH]c4n3)cc2)CC1 [Example 19]
< 0.1 µM

Notebook: pull reported IC50 for PC-9 EGFR-Del19, entry CN1CCN(c2ccc(Nc3nc(N[C@H]4CC[C@@H](N)CC4)c4c(C(=O)c5ccc(F)cc5)c[nH]c4n3)cc2)CC1 [Example 86]
< 0.1 µM

Notebook: pull reported IC50 for PC-9 EGFR-Del19, entry CN1CCN(c2ccc(Nc3nc(N[C@H]4CC[C@H](CO)CC4)c4c(C(=O)c5ccc(F)cc5)c[nH]c4n3)cc2)CC1 [Example 42]
< 0.1 µM

Notebook: pull reported IC50 for PC-9 EGFR-Del19, entry CN1CCN(c2ccc(Nc3nc(NC4CCOCC4)c4c(C(=O)c5ccc(F)cc5)c[nH]c4n3)cc2)CC1 [Example 40]
0.1 to 1 µM

Notebook: pull reported IC50 for PC-9 EGFR-Del19, entry C=CC(=O)N1CC[C@H](Nc2nc(Nc3ccc(N4CCN(C)CC4)cc3)nc3[nH]cc(C(=O)c4ccccc4F)c23)C1 [Example 46]
< 0.1 µM

Notebook: pull reported IC50 for PC-9 EGFR-Del19, entry CCN1CCN(c2ccc(Nc3nc(N[C@H]4CC[C@@H](CO)CC4)c4c(C(=O)c5ccc(F)cc5)c[nH]c4n3)cc2)CC1 [Example 104]
< 0.1 µM

Notebook: pull reported IC50 for PC-9 EGFR-Del19, entry CN1CCN(c2ccc(Nc3nc(N[C@H]4CC[C@@H](CO)CC4)c4c(C(=O)c5ccc(F)cc5)c[nH]c4n3)cc2F)CC1 [Example 103]
< 0.1 µM

Notebook: pull reported IC50 for PC-9 EGFR-Del19, entry C=CC(=O)N1CC[C@@H](Nc2nc(Nc3cnn(C)c3)nc3[nH]cc(C(=O)c4ccc(F)cc4)c23)C1 [Example 109]
< 0.1 µM

Notebook: pull reported IC50 for PC-9 EGFR-Del19, entry COc1nn(C)cc1Nc1nc(N[C@H]2CC[C@@H](CO)CC2)c2c(C(=O)c3ccc(F)cc3)c[nH]c2n1 [Example 116]
< 0.1 µM

Notebook: pull reported IC50 for PC-9 EGFR-Del19, entry CN1CCN(c2ccc(Nc3nc(NC4CCCCC4O)c4c(C(=O)c5ccc(F)cc5)c[nH]c4n3)cc2)CC1 (centres unmarked) [Example 43]
0.1 to 1 µM
